ASSAYED TARGET: GLP-1 receptor (human, UniProt P43220 24-463)
MEASUREMENT PROTOCOL: cell-based or functional assay
Non-standard residues stand in square brackets, D forms with d. No end group written: not given here. Aib = CC(C)(N)C(=O)O
PROPERTY: percent in parentheses (not explained) (%)
Answer with a number only, understood to be in %.

INPUT: Please list percent in parentheses (not explained) recorded for the binder HSQGTFTSDYSKYLDEQAVRLFICWLLDGGPSSGAPPPS-NH2 (not fully specified; also: further groups not given here) [Glucagon Analog 84]
OUTPUT: 600

INPUT: Read the entry HSQGTFTSDKSKYLDEQAVRLFIC(PEG 40 kDa)WLLDT-NH2 (also: acylated amino acid at position 10, acyl group not given here) [Glucagon Analog 85] and write its reported percent in parentheses (not explained).
OUTPUT: 284

INPUT: Return the recorded percent in parentheses (not explained) value; entry: HSQGTFTSDKSKYLDERAAQDFVC(PEG 40 kDa)WLLDT-NH2 (not fully specified (residue 10); also: Lys10 acylated, acyl group not given here) [Glucagon Analog 29]
OUTPUT: 16

INPUT: Output percent in parentheses (not explained) of HSQGTFTSDYSKYLD[Aib]KAVRLFICWLLDT-NH2 [Glucagon Analog 86]
OUTPUT: 106

INPUT: Quickly give me recorded percent in parentheses (not explained) for HSQGTFTSDYSKYLDEQAVRLFICWLLDT-NH2 (not fully specified; also: further groups not given here) [Glucagon Analog 87]
OUTPUT: 284

Data provenance is patent US20120288511A1.
